Please go through the items and note down their melting point.

Form field melting point, entry Cc1cc(C)cc(-c2nc(NC(=O)c3ccccc3)sc2-c2ccncc2)c1 [23-197] : 285 to 286 °C

Form field melting point, entry CC(C)(C)c1ccc(-c2nc(NC(=O)C3CCCC3)sc2-c2ccncc2)cc1 [23-168] : 309 to 311 °C

Form field melting point, entry COc1ccc(C(=O)Nc2nc(-c3cccc(C)c3)c(-c3ccnc(NC4CCCC4)c3)s2)cn1 [H 48-2] : 219 to 221 °C

Form field melting point, entry CCc1nc(-c2cccc(C(F)(F)F)c2)c(-c2ccnc(N)c2)s1 [H 20-4] : 117 to 118 °C

Form field melting point, entry CCc1nc(-c2cccc(C)c2)c(-c2ccnc(NCC3CCCC3)c2)s1 [H 32] : 67 to 69 °C

Form field melting point, entry Cc1cccc(-c2nc(-c3ccccc3Cl)sc2-c2ccnc(C)c2)c1 [H 14-1] : 83 to 84 °C

Form field melting point, entry Cc1cc(C)cc(-c2nc(NC(=O)Cc3ccccc3)sc2-c2ccncc2)c1 [23-196] : 226 to 229 °C

Form field melting point, entry Cc1cccc(-c2nc(-c3ccc(S(C)(=O)=O)cc3)sc2-c2ccnc(NCC3CCCCC3)c2)c1 [H 37-3] : 157 to 159 °C

Form field melting point, entry CC(=O)Nc1cc(-c2sc(C(C)O)nc2-c2cccc(C)c2)ccn1 (stereo not drawn) [H 111-1] : 99 to 102 °C

Form field melting point, entry Cc1cccc(-c2nc(-c3ccc(S(C)(=O)=O)cc3)sc2-c2ccnc(N3CCN(C)CC3)c2)c1 [H 37-5] : 153 to 154 °C

Form field melting point, entry Cc1cccc(-c2nc(-c3ccc(F)cc3)sc2-c2ccnc(C)c2)c1 [H 14-4] : 89 to 91 °C

Form field melting point, entry Cc1cccc(-c2ncsc2-c2ccnc(N)c2)c1 [H 27-1] : 91 to 92 °C

Form field melting point, entry Cc1cccc(-c2nc(N(C)C(=O)c3cccnc3)sc2-c2ccnc(NC3CCCCC3)c2)c1 [L 65-4] : 135 to 136 °C

Form field melting point, entry CC(=O)Nc1nc(-c2cc(C)cc(C)c2)c(-c2ccncc2)s1 [Reference Example A 23-128] : 284 to 286 °C

Form field melting point, entry CCc1nc(-c2ccc(Cl)cc2)c(-c2ccnc(NC(=O)CC3CCCC3)c2)s1 [H 90-2] : 149 to 150 °C

Form field melting point, entry Cc1cccc(-c2sc(NC(=O)Nc3ccccc3)nc2-c2cc(C)nc(C)c2)c1 [H 52] : 173 to 174 °C

Form field melting point, entry Cc1cccc(-c2nc(-c3ccc(S(C)(=O)=O)cc3)sc2-c2cc[n+]([O-])c(C)c2)c1 [H 68-1] : 197 to 198 °C

Form field melting point, entry CCC(=O)Nc1cc(-c2sc(C3CCN(C(C)=O)CC3)nc2-c2cccc(Cl)c2)ccn1 [H 94] : 174 to 175 °C

Form field melting point, entry Cc1cccc(-c2nc(-c3ccccc3Cl)sc2-c2ccnc(NC(=O)c3ccccc3)c2)c1 [D 16-13] : 138 to 140 °C

Form field melting point, entry CCc1nc(-c2cccc(F)c2)c(-c2ccnc(N)c2)s1 [H 20-6] : 153 to 154 °C

Form field melting point, entry CCc1nc(-c2cccc(C)c2)c(-c2ccnc(NC(=O)CC3CCCC3)c2)s1 [H 89] : 85 to 86 °C

Form field melting point, entry Cc1cccc(-c2nc(-c3ccc(S(C)(=O)=O)cc3)sc2-c2ccnc(CO)c2)c1 [H 72] : 172 to 173 °C

Form field melting point, entry Cc1cccc(-c2nc(NC(=O)c3cccnc3)sc2-c2ccnc(C)c2)c1 [H 41] : 175 to 178 °C

Form field melting point, entry Cc1cc(C)cc(-c2nc(N)sc2-c2cc(C)nc(C)c2)c1 [H 7-7] : 256 to 258 °C

Form field melting point, entry Cc1cccc(-c2nc(-c3ccc(S(C)(=O)=O)cc3)sc2-c2ccnc(NC3CCCCC3)c2)c1 [H 36-5] : 197 to 199 °C

Form field melting point, entry CCc1nc(-c2cccc(C)c2)c(-c2ccnc(NC(=O)c3ccc(F)cc3)c2)s1 [L 39-5] : 110 to 111 °C

Form field melting point, entry CCCCC(=O)Nc1cc(-c2sc(CC)nc2-c2cccc(Cl)c2)ccn1 [H 88-1] : 109 to 110 °C

Form field melting point, entry CC(=O)Nc1cc(-c2sc(C)nc2-c2cccc(Cl)c2)ccn1 [H 30-1] : 112 to 115 °C

Form field melting point, entry CCOC(=O)Cc1nc(-c2cccc(C)c2)c(-c2ccnc(N)c2)s1 [H 18-5] : 128 to 129 °C

Form field melting point, entry CCc1nc(-c2cccc(Cl)c2)c(-c2ccnc(N)c2)s1 [H 20-1] : 131 to 132 °C

Form field melting point, entry CCc1nc(-c2cccc(C)c2)c(-c2ccnc(NC(=O)c3cccc(F)c3)c2)s1 [L 39-4] : 101 to 102 °C

Form field melting point, entry CC(=O)Nc1nc(-c2cc(C)cc(C)c2)c(-c2cc(C)nc(C)c2)s1 [H 40-3] : 266 to 267 °C

Form field melting point, entry CSc1ccc(-c2nc(-c3cccc(C)c3)c(-c3ccnc(F)c3)s2)cc1 [H 15] : 97 to 100 °C

Form field melting point, entry CCCc1nc(-c2cccc(Cl)c2)c(-c2ccnc(NC(=O)CC)c2)s1 [H 30-9] : 103 to 104 °C

Form field melting point, entry Cc1cc(C)cc(-c2nc(NC(=O)c3cccnc3)sc2-c2cc(C)nc(C)c2)c1 [H 42-2] : 267 to 268 °C

Form field melting point, entry Cc1cccc(-c2nc(NC(=O)Nc3ccccc3)sc2-c2ccnc(NC3CCCCC3)c2)c1 [H 53-2] : 198 to 199 °C
